Reference for the values: patent US20220409593A1

Let's look at some compounds and their measured pEC50.
Tested on: secreted mouse PGRN
Experiment: progranulin induction cellular assay (PGRN assay, ELISA-based readout)
Conditions: Mus musculus, progranulin secreted into cell culture medium, cells named in method: mouse primary microglia, primary cortical neurons, BV-2
For clarity, pEC50 is expressed as the negative log10 of concentration in mol/L.

CN1CCC2(CC1)CN=C(N1CCc3ccccc3[C@@H]1c1ccc(F)cc1)O2	6.96

## Task Reported pEC50, compound CN1CCCC2(CN=C(N3CCc4ccccc4[C@@H]3c3cccc(F)c3F)O2)C1 (mixture of isomers) : ____
## Result 5.99

## Task Try this compound too: Fc1ccc([C@H]2c3ccccc3CCN2C2=NC[C@@]3(CN4CCC3CC4)O2)c(F)c1 (single isomer, unassigned)
## Result 6.07

## Task Also Fc1ccc([C@H]2c3ccccc3CCN2C2=NC[C@@H]([C@H]3CCNC3)O2)cc1 (single isomer, unassigned) ?
## Result 6.61
